Cited source for all entries: patent US20090093517A1

biological target: apamin-sensitive sites of the SK channels; test: Competition binding between 125I-apamin and bis-tetrahydroisoquinoline derivatives on rat cortical synaptosomes; conditions: separated stereoisomers; rat cortical apamin sensitive sites; 125I-apamin; listed as 4e E2, hydrochloride
pKi: −log10 of the molar value. Counter-ions that a name gives are not always drawn.
quantity.measured: pKi

compound	reported
COc1cc2c(cc1OC)C(CCCCC1c3cc(OC)c(OC)cc3CCN1C)N(C)CC2 (stereo not shown) [Compound 4e E2, hydrochloride]	5.92

---

Target: apamin-sensitive sites of the SK channels
Test: Competition binding between 125I-apamin and bis-tetrahydroisoquinoline derivatives on rat cortical synaptosomes
Conditions: separated stereoisomers; rat cortical apamin sensitive sites; 125I-apamin; listed as 4f E1, hydrochloride
Protocol: These experiments are used to evaluate the potency of the bis-tetrahydroisoquinoline derivatives to interact with the apamin-sensitive sites of the SK channels, the selected target for which a blockade is expected to be useful in the treatment of Alzheimer's disease, Parkinson's disease, schizophrenia, cognitive dysfunction, or depression. Two reference compounds are also tested for comparison […]

compound	result.unit	Ki
COc1cc2c(cc1OC)C(CCCCCC1c3cc(OC)c(OC)cc3CCN1C)N(C)CC2.Cl (stereo not shown) [Compound 4f E1, hydrochloride]	nM	592

---

target: apamin-sensitive sites of the SK channels; assay: Competition binding between 125I-apamin and bis-tetrahydroisoquinoline derivatives on rat cortical synaptosomes; conditions: separated stereoisomers; rat cortical apamin sensitive sites; 125I-apamin; listed as 4d E1, hydrochloride
Counter-ions that a name gives are not always drawn.
quantity.measured: Ki (nM)

compound	quantity.measured	reported
COc1cc2c(cc1OC)C(CCCC1c3cc(OC)c(OC)cc3CCN1C)N(C)CC2 (stereo not shown) [Compound 4d E1, hydrochloride]	Ki	293

---

Biological target: apamin-sensitive sites of the SK channels
Assay: Competition binding between 125I-apamin and bis-tetrahydroisoquinoline derivatives on rat cortical synaptosomes
Settings: separated stereoisomers; rat cortical apamin sensitive sites; 125I-apamin; listed as 4m E2
Method: These experiments are used to evaluate the potency of the bis-tetrahydroisoquinoline derivatives to interact with the apamin-sensitive sites of the SK channels, the selected target for which a blockade is expected to be useful in the treatment of Alzheimer's disease, Parkinson's disease, schizophrenia, cognitive dysfunction, or depression. Two reference compounds are also tested for comparison […]
pKi: −log10 of the molar value.
quantity.measured: pKi

molecule	test.system	quantity.measured	reported
COc1cc2c(cc1OC)C(Cc1cccc(CC3c4cc(OC)c(OC)cc4CCN3C)c1)N(C)CC2 (stereo not shown) [Compound 4m E2]	apamin-sensitive sites of the SK channels	pKi	5.99
